experimental-system: T1, recombinant human IL-31 (hIL-31, BHK produced, A1277F, zcytor17lig CEE) (human, UniProt Q6EBC2 24-164)
T1 construct: also called recombinant hIL-31
T1 sequence: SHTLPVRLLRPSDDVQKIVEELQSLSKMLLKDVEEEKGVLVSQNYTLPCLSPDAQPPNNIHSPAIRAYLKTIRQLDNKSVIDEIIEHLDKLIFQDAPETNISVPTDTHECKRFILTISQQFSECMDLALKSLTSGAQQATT
procedure-details: SPR (Biacore), mAb amine-coupled to CM5 chip, hIL-31 injected
pKd: −log10 of the molar value.
We begin with a simple list: items and their reported pKd.

binder	pKd
humanized 292.12.3.1 construct clone 16 (12VH1-gly + HC(fback) + LC(G66R, G68E, D70Q, T72S)) (antibody, human IgG4, V domains shown) VH: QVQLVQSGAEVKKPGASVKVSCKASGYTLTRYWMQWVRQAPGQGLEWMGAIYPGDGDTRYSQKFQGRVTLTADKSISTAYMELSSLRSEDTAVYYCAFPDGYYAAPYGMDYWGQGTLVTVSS VL: DIQMTQSPSSLSASVGDRVTITCRASGNIHNYLAWYQQKPGKVPKLLIYNAKTLADGVPSRFSGSRSETQFSLTISSLQPEDVATYYCQHFWSTPWTFGQGTKVEIKR	8.92
humanized 292.12.3.1 construct clone 13 (12VH1-gly + HC(F29L, M69L, R71A, T73K, V78A) + LC(fback)) (antibody, human IgG4, V domains shown) VH: QVQLVQSGAEVKKPGASVKVSCKASGYTLTRYWMQWVRQAPGQGLEWMGAIYPGDGDTRYSQKFQGRVTLTADKSISTAYMELSSLRSEDTAVYYCARPDGYYAAPYGMDYWGQGTLVTVSS VL: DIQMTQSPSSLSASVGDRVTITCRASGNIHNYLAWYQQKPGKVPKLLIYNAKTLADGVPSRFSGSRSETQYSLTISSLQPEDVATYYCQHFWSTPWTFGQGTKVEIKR	7.62
humanized 292.12.3.1 construct clone 21 (12VH5-gly + HC(G24A, S28T, F29L, R94F) + LC(fback)) (antibody, human IgG4, V domains shown) VH: EVQLVQSGAEVKKPGESLKISCKASGYTLTRYWMQWVRQMPGKGLEWMGAIYPGDGDTRYSPSFQGQVTISADKSISTAYLQWSSLKASDTAMYYCAFPDGYYAAPYGMDYWGQGTTVTVSS VL: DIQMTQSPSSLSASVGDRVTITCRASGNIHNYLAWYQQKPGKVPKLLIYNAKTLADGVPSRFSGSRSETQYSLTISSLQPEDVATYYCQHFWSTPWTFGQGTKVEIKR	8.85
humanized 292.12.3.1 construct clone 28 (12VH1-gly + HC(F29L, R71A, R94F) + LC(F71Y)) (antibody, human IgG4, V domains shown) VH: QVQLVQSGAEVKKPGASVKVSCKASGYTLTRYWMQWVRQAPGQGLEWMGAIYPGDGDTRYSQKFQGRVTMTADTSISTVYMELSSLRSEDTAVYYCAFPDGYYAAPYGMDYWGQGTLVTVSS VL: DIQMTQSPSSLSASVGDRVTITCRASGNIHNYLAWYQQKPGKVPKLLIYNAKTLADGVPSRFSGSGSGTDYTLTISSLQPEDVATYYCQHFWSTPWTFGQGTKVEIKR	9.34
humanized 292.12.3.1 construct clone 8 (12VH5-gly + fback) (antibody, human IgG4, V domains shown, also called 08) VH: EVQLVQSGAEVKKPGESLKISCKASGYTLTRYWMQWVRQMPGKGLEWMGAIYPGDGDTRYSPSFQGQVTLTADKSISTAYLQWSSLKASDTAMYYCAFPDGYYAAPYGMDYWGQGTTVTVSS VL: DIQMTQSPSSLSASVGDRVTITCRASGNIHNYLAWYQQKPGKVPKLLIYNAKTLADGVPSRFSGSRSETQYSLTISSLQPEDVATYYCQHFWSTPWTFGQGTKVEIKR	8.72

This collection of values is drawn from patent US20200262913A1.
